# Assay system: T1, NF-kB p52 (NFKB2) (UniProt Q00653 Q00653:1-454)
# T1 sequence: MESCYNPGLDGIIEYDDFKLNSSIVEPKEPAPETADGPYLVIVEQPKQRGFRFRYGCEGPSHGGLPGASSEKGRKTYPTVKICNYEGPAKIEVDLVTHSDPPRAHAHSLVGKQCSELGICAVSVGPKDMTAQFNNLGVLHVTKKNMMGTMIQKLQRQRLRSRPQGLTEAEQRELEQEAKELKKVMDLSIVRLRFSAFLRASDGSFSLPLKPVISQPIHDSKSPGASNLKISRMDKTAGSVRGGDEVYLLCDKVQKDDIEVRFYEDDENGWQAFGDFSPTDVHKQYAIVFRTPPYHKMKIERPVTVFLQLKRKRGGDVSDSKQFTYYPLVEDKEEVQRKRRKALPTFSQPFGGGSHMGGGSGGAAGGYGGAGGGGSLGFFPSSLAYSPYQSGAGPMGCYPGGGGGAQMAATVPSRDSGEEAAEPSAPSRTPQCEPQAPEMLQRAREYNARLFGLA
# Measurement protocol: competition
# Run conditions: protein: extract; tags: Raji nuclear extract, Active Motif
Measured quantity: pIC50
FYI, pIC50 means -log10 of a concentration in mol per litre.

Use these answered entries as a reference point.
>  <Binder>
PSODN16 (dsDNA, PS only within consensus gggatttccc, both strands) DNA 1: CGCAGGGATTTCCCGCG DNA 2: CGCGGGAAATCCCTGCG

>  <Val>
8.63

$$$$
>  <Binder>
PSODN7 (dsDNA, PS only within consensus gggatttccc, both strands) DNA 1: CGCGGGATTTCCCAGC DNA 2: GCTGGGAAATCCCGCG

>  <Val>
8.52

$$$$
>  <Binder>
PSODN8 (dsDNA, PS only within consensus gggatttccc, both strands) DNA 1: CCCGGGATTTCCCACC DNA 2: GGTGGGAAATCCCGGG

>  <Val>
8.49

$$$$
>  <Binder>
PSODN9 (dsDNA, PS only within consensus gggatttccc, both strands) DNA 1: GGAGGGATTTCCCGGG DNA 2: CCCGGGAAATCCCTCC

>  <Val>
8.81

$$$$
>  <Binder>
Control decoy (conventional NF-kB decoy) (dsDNA, PS all bonds, both strands) DNA 1: CCTTGAAGGGATTTCCCTCC DNA 2: GGAGGGAAATCCCTTCAAGG

>  <Val>
8.07

$$$$

pIC50 reading for PSODN17 (dsDNA, PS only within consensus gggatttccc, both strands) DNA 1: CCCTGGGATTTCCCGCC DNA 2: GGCGGGAAATCCCAGGG : 8.37

Measured pIC50, PSODN30 (dsDNA, PS only within consensus gggatttccc, both strands) DNA 1: GGCTGGGATTTCCCGCGG DNA 2: CCGCGGGAAATCCCAGCC : 8.68
